- Target Desc: PfENT1 (Plasmodium falciparum)
- Sequence (Q8IDM6 whole entry): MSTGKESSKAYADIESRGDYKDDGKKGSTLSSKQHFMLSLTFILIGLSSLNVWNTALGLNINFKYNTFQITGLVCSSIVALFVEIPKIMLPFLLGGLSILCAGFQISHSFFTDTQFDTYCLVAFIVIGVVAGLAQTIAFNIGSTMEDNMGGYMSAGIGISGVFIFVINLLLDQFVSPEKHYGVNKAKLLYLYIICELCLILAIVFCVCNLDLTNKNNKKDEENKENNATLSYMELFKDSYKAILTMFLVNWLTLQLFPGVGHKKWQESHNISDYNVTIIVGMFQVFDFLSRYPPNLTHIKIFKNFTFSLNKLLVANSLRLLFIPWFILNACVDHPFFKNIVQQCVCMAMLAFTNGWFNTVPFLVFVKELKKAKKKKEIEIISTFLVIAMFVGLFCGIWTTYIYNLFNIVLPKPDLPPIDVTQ
- Protocol Summary: Yeast Kill Assay
- Format: cell-based
Property: IC50; scope: individual compounds
Answer in µM, number only, no unit symbol.

Some compounds with recorded IC50:
CCc1nnc(NC(=O)c2nc(-c3ccc(Cl)cc3)n3c2CCCCC3)s1 [GSK-2]
0.11
CCn1cnnc1C1CCN(C(=O)c2cn3ccc(C)cc3n2)CC1 [GSK-6]
1.2
Cc1oc(-c2ccccc2)nc1C(=O)NCCN1CCCCCC1=O [GSK-4]
0.43
CC(=O)Nc1nc(-c2c(F)cccc2F)cs1 [GSK-5]
4
COc1ccc(-c2nc(C(=O)Nc3cccc(-c4nnc5n4CCCCC5)c3)cs2)cc1OC [GSK-1]
0.54

## Task Item under review: O=C(Nc1ccccc1C(=O)NC1CC1)c1cccc(N2CCCC2=O)c1 [GSK-3] . Reported IC50?
## Result 0.46
